These measurements were taken from paper PMC5540273.

# Tested on: CASK
# Measurement parameters: concentration: 1 μM, replicates: in singlicate; n = 1;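 further: KINOMEscan kinase panel screen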
Observation type: %Inh (%)
Record the value in %, omitting the unit from your answer.

Compound	%Inh (%)
CC(C)(C)c1ccc(C(=O)Nc2cn3cc(-c4ccccc4)ccc3n2)cc1	1

Here's the next entry for you.
// sample O=C(Nc1n[nH]c2nc(-c3ccccc3)c(Br)cc12)C1CC1 , its %Inh was 0

----------
# Tested on: MERTK
# Measurement parameters: concentration: 1 μM, replicates: in singlicate; n = 1
Entries and their %Inh
Record the value in %, omitting the unit from your answer.

// sample COc1ccc(-c2cc3c(C)nc(N)nc3n([C@H]3CC[C@H](OCCO)CC3)c2=O)cn1 , its %Inh was 0

// sample CCS(=O)c1ccc(-c2coc3ccc(-c4nnc(C)o4)cc23)cc1 (centres unmarked) , its %Inh was 0

// sample Cc1nnc(-c2ccc3ncn(-c4ccc(S(C)=O)cc4)c3c2)o1 (centres unmarked) , its %Inh was 1

// sample Nc1ncnc2c1ncn2-c1cccc2ccccc12 , its %Inh was 0

// sample O=C(Nc1n[nH]c2nc(-c3ccccc3)c(Cl)cc12)C1CC1 , its %Inh was 0
